test: Photostability: xenon arc weathering of chromophore solutions, LCMS analysis
Assay type: physicochemical
testContext: 3 wt % in Rhodiasolv IRIS; xenon arc, 82° C. bp; linearly interpolated to 0.5 MJ/m2 @ 340 nm
valueType: Minus-HF (%)
Value expressed in %; do not type the unit.

Recorded results for 3 compounds are shown here.
# compoundString, unitOfMeasurement, dataValue
data = [
    ("CC(C)(C)c1ccc(-c2oc3ccccc3c2C2=C(c3cc(-c4ccc(C(C)(C)C)s4)sc3-c3ccc(C(C)(C)C)s3)C(F)(F)C(F)(F)C2(F)F)cc1", "%", 0.0),
    ("COc1cc2oc(-c3ccc(C(C)(C)C)cc3)c(C3=C(c4cc(-c5ccc(C(C)(C)C)s5)sc4-c4ccc(C(C)(C)C)s4)C(F)(F)C(F)(F)C3(F)F)c2cc1OC", "%", 3.5),
    ("CC(=O)Oc1cc2oc(-c3ccc(C(C)(C)C)cc3)c(C3=C(c4cc(-c5cc(C(C)(C)C)cs5)sc4-c4cc(C(C)(C)C)cs4)C(F)(F)C(F)(F)C3(F)F)c2cc1OC(C)=O", "%", 0.0),
]

Memo: COc1ccc2oc(-c3ccc(C(C)(C)C)cc3)c(C3=C(c4cc(-c5cc6c(s5)C(C)(C)CCC6(C)C)sc4-c4cc5c(s4)C(C)(C)CCC5(C)C)C(F)(F)C(F)(F)C3(F)F)c2c1 , reported Minus-HF (%): 0.0

Memo: COc1ccc2c(C3=C(c4cc(-c5ccc(C(C)(C)C)s5)sc4-c4ccc(C(C)(C)C)s4)C(F)(F)C(F)(F)C3(F)F)c(-c3ccc(C(C)(C)C)cc3)oc2c1 , reported Minus-HF (%): 6.9
